- Subject of test: Alpha-2C adrenergic receptor (Homo sapiens) (UniProt P18825)
- Sequence (P18825 whole entry, looked up): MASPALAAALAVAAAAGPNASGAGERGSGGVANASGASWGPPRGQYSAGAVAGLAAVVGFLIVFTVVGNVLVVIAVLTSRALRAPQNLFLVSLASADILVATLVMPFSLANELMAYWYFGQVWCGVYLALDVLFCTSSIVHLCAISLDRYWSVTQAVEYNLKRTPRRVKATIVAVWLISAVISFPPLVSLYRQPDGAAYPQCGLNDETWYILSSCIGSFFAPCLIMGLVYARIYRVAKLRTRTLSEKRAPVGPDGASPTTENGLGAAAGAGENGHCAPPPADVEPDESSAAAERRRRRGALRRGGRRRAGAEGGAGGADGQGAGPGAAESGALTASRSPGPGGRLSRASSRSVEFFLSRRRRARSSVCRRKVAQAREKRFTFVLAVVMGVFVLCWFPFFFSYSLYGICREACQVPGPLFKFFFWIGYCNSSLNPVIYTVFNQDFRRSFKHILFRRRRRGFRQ
- Test summary: modulators of alpha2C/GIRK thallium flux, primary screen, cell-based, HEK293 alpha2C/GIRK1/2 (AID 624);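 note: slope of fluorescence ratio to pre-addition baseline per second over 15 to 24 s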
- Test settings: thallium flux BTC fluorescence, at 10 µM, actives lie on both sides
Criterion: slope strictly under 0.005. Met: Criterion met. Not met: Criterion not met.

Molecule: CCOC(=O)c1sc(NC(=O)CSc2nnc(-c3ccc(OC)cc3)n2CCOC)nc1C
Assigned label: Criterion not met

Molecule: CCOC(=O)c1oc2ccccc2c1CSc1nnnn1-c1ccc(C)cc1
Assigned label: Criterion not met

Molecule: C=CCn1c(SCC(=O)Nc2ccccc2OC)nnc1-c1ccco1
Assigned label: Criterion not met

Molecule: CN1CCN(Cc2nc3c(c(=O)n(C)c(=O)n3C)n2Cc2ccccc2Cl)CC1
Assigned label: Criterion met

Molecule: c1ccc(CCn2nnnc2C(c2cccs2)N2CCOCC2)cc1 (centres undefined)
Assigned label: Criterion met

Molecule: O=C(O)CCn1[nH]c(=O)ccc1=O
Assigned label: Criterion not met

Molecule: O=C1OCc2cc(NC(=O)C3CCCO3)ccc21 (centres undefined)
Assigned label: Criterion met

----------
- Test summary: inhibitors of Sendai virus-induced IRF3 signaling, primary screen, TLR/RLR signaling modifier project, cell-based, Sendai virus stimulus, luciferase, 10K MLSCN set (AID 602276);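 note: firefly luciferase from ISG56 promoter only with Renilla not read in this screen; 0% = Sendai virus plus DMSO and 100% = medium plus DMSO without virus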
- Test settings: HEK293 RL24 IRF3 luciferase reporter, at 10 µM, stronger effect = higher value

Compound: CCCOC(=O)C1C2C=CC3(CN(c4cccc(Cl)c4)C(=O)C13)O2 (stereo not given)
inhibition, %: 12.8
//
Compound: CCCN1CCN(C(=O)Cn2c(=O)oc3cc(S(=O)(=O)NCc4ccccc4)ccc32)CC1
inhibition, %: 8.82
//
Compound: CCSc1cc(C2C(C(=O)OC)=C(C)NC3=C2C(=O)CCC3)c(C)o1 (stereo not given)
inhibition, %: 16.1
//
Compound: Cn1c(=O)c2c(nc(Br)n2CCSc2nnnn2-c2ccccc2)n(C)c1=O
inhibition, %: 1.27
//
Compound: Cc1cc(C)n(-c2nc3nonc3nc2-n2nc(C)cc2C)n1
inhibition, %: 11.8

----------
- Test summary: inhibitors of E-selectin induction by TNFa, primary screen, imaging, HUVEC, immunofluorescence, MLSMR starter and 10KST1 sets (AID 487);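 note: signal is fraction of cell area covered by stained E-selectin grains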
- Test settings: HUVEC TNFalpha-induced E-selectin immunofluorescence imaging, at 2 µM; stronger effect = higher value
Please use class 1 whenever inhibition is not below -20%, and class 0 whenever it is.

Molecule: C=CCN1C(=O)CC(C(=O)NC)SC1=Nc1ccc(C(=O)OCC)cc1 (stereo unspecified)
Assigned label: class 1
--
Molecule: NC(=O)COC(=O)c1ccc(S(=O)(=O)N2CCCCCC2)cc1
Assigned label: class 1
--
Molecule: Cc1cc(C(=O)CSc2nnc(-c3ccco3)o2)c(C)n1CC1COc2ccccc2O1 (stereo unspecified)
Assigned label: class 0
--
Molecule: CN(C)CCCN(CCCNC(=O)/C=N/O)Cc1ccccc1
Assigned label: class 0
--
Molecule: COc1ccc(N2CCN(C(=O)c3c(-c4ccccc4)noc3C)CC2)cc1
Assigned label: class 1
--
Molecule: CCOC(=O)c1cc2n(n1)C(C(F)(F)C(F)(F)F)CC(C)N2 (stereo unspecified)
Assigned label: class 0
--
Molecule: COC(=O)c1ccccc1OCC(=O)NC1CCCCC1
Assigned label: class 0
--
Molecule: CC1(C(=O)CSc2nc3ccccc3[nH]2)CCC(=O)O1 (stereo unspecified)
Assigned label: class 1
--
Molecule: CC(=O)c1ccc(NS(=O)(=O)c2ccccc2)cc1
Assigned label: class 0
--
Molecule: N#Cc1c(N)nc2c(c1-c1ccncc1)CCCCC2
Assigned label: class 1
--
Molecule: Cc1ccc(CNC(=O)c2cc3c(=O)n4ccccc4nc3n(Cc3ccco3)c2=N)cc1
Assigned label: class 1
--
Molecule: COCc1nnc(NC(=O)CCCOc2ccccc2)s1
Assigned label: class 1
--
Molecule: COc1ccc(C2CC(c3ccc(Cl)cc3Cl)n3nc(N)nc3N2)cc1 (stereo unspecified)
Assigned label: class 1
--
Molecule: CC1(C)CC(=O)C(C=Nc2ccc(Cl)cn2)=C(O)C1
Assigned label: class 0
--
Molecule: CCSc1nnc(NC(=O)NCC(F)(F)F)s1
Assigned label: class 1
--
Molecule: CCCCOC(=O)c1[nH]c2c(c1C)C(=O)CC(c1cc(OC)c(OC)c(OC)c1)C2 (stereo unspecified)
Assigned label: class 1
